System: 885512-296-R-J2-PDC complex spheroid viability
Assay: Anticancer human tumor 885512-296-R-J2-PDC patient-derived breast carcinoma cell line growth inhibition [GQUAD]
Details: second compound 0.1 µM; first compound 0.316 µM; active compounds read low
Exercise: state measured viability, T/C for each of the compounds provided.
Response body: numeric value in %, unit text excluded.

stdin: Report viability, T/C for CC(C)n1c(=O)n(C)c2cnc3cc(F)c(-c4ccc(OCCCN5CCCCC5)nc4)cc3c21 + Cc1[nH]c2ccc(F)cc2c1-c1nc2c3cccnc3c3ncccc3c2[nH]1 please.
stdout: 88

stdin: So what does the record say about viability, T/C for CC1COCCN1c1cc(C2(O)CC3CCC(C2)O3)c2cnn(-c3ccn[nH]3)c2n1 (stereo not given) + Cc1cnc(CNC(=O)c2c(=O)c3ccc(N4CCCN(C)CC4)nc3n3c2sc2ccccc23)cn1 ?
stdout: 3.12

stdin: Endpoint output: viability, T/C of CC(C)(O)C1CCC(Nc2ccc3ncc(-c4cccc(C(F)(F)F)c4)n3n2)CC1 (stereo not given) + Cc1[nH]c2ccc(F)cc2c1-c1nc2c3cccnc3c3ncccc3c2[nH]1 . Value?
stdout: 92.8

stdin: Value lookup for viability, T/C; key = COc1ncnc(C2CC2)c1-c1ncc2cnn(Cc3ccc(-c4nc(C(F)(F)F)cn4C(C)C)cc3)c2n1 + CN(C)c1ccc(Nc2c3ccc(NC(=O)CCN4CCCC4)cc3nc3cc(NC(=O)CCN4CCCC4)ccc23)cc1
stdout: 97.3

stdin: Which value of viability, T/C has been reported for COc1ccc([C@@H](O)c2cc(-c3ncnc4cc(N5CCOCC5)ccc34)c(F)cc2Cl)nn1 + Cc1[nH]c2ccc(F)cc2c1-c1nc2c3cccnc3c3ncccc3c2[nH]1 in the records?
stdout: 104

====

System: 885512-296-R-J2-PDC complex spheroid viability
Assay: Anticancer human tumor 885512-296-R-J2-PDC cell line growth inhibition [GQUAD]; active means viability on the fitted dose curve at most 10% of control; inactive means the rest;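 also: spheroids exposed to the compounds for one week; percent of tumor spheroid viability relative to DMSO vehicle control wells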
Conditions: second compound 3.16 µM; first compound 0.0316 µM
Permitted responses: active, inactive

stdin: State the result this test recorded for CC1COCCN1c1cc(C2(O)CC3CCC(C2)O3)c2cnn(-c3ccn[nH]3)c2n1 (stereo not given) + Cc1cnc(CNC(=O)c2c(=O)c3ccc(N4CCCN(C)CC4)nc3n3c2sc2ccccc23)cn1 .
stdout: active

stdin: Please let me know the test result on file for CC1COCCN1c1cc(C2(S(C)(=N)=O)CC2)nc(-c2ccnc3[nH]ccc23)n1 (stereo not given) + Cc1[nH]c2ccc(F)cc2c1-c1nc2c3cccnc3c3ncccc3c2[nH]1 .
stdout: inactive

stdin: Answer briefly: the call reported for COc1cccc2c1C(=O)c1c(O)c3c(c(O)c1C2=O)CC(O)(C(=O)CO)CC3OC1CC(N)C(O)C(C)O1 (stereo not given) + CN(C)c1ccc(Nc2c3ccc(NC(=O)CCN4CCCC4)cc3nc3cc(NC(=O)CCN4CCCC4)ccc23)cc1 in this assay.
stdout: inactive

stdin: What is the recorded call for this compound in the test? COc1cc(C2c3cc4c(cc3C(OC3OC5COC(C)OC5C(O)C3O)C3COC(=O)C23)OCO4)cc(OC)c1O (stereo not given) + Cc1cnc(CNC(=O)c2c(=O)c3ccc(N4CCCN(C)CC4)nc3n3c2sc2ccccc23)cn1
stdout: inactive

stdin: Identify the outcome logged in this assay for the compound shown: COc1ncnc(C2CC2)c1-c1ncc2cnn(Cc3ccc(-c4nc(C(F)(F)F)cn4C(C)C)cc3)c2n1 + Cc1cnc(CNC(=O)c2c(=O)c3ccc(N4CCCN(C)CC4)nc3n3c2sc2ccccc23)cn1
stdout: inactive

stdin: Recorded test outcome, item CC1COCCN1c1cc(C2(S(C)(=N)=O)CC2)nc(-c2ccnc3[nH]ccc23)n1 (stereo not given) + Cc1cnc(CNC(=O)c2c(=O)c3ccc(N4CCCN(C)CC4)nc3n3c2sc2ccccc23)cn1
stdout: inactive

stdin: What call does the record list for C#Cc1c(F)ccc2cc(O)cc(-c3ncc4c(N5CC6CCC(C5)N6)nc(OCC56CCCN5CC(F)C6)nc4c3F)c12 (stereo not given) + CN(C)c1ccc(Nc2c3ccc(NC(=O)CCN4CCCC4)cc3nc3cc(NC(=O)CCN4CCCC4)ccc23)cc1 ?
stdout: inactive

stdin: Record lookup: outcome of this test for COc1ccc([C@@H](O)c2cc(-c3ncnc4cc(N5CCOCC5)ccc34)c(F)cc2Cl)nn1 + Cc1cnc(CNC(=O)c2c(=O)c3ccc(N4CCCN(C)CC4)nc3n3c2sc2ccccc23)cn1 ?
stdout: inactive

stdin: Called result for Cc1[nH]c2ccccc2c1CCNCc1ccc(/C=C/C(=O)NO)cc1 + Cc1cnc(CNC(=O)c2c(=O)c3ccc(N4CCCN(C)CC4)nc3n3c2sc2ccccc23)cn1
stdout: active

stdin: Field: outcome | Entry: C=CCn1c(=O)c2cnc(Nc3ccc(N4CCN(C)CC4)cc3)nc2n1-c1cccc(C(C)(C)O)n1 + Cc1[nH]c2ccc(F)cc2c1-c1nc2c3cccnc3c3ncccc3c2[nH]1
stdout: active

Hello, the source for this data is PubChem BioAssay AID2060490, in case you need it.
